test details: acute toxicity, intragastric, rats
reported conditions: rat, in vivo, po, both after 48 hours and after 14 days
measurement name: LD50

Enquiry: Which LD50 value is on record for CCCCCCCCCCOCC(O)CN.Cl (stereo not shown) ?
Return: 1300 mg/kg

---

Each entry below lists one item and its recorded MIC value.
Test system: Bacillus subtilis
test details: bacteriostatic activity (MIC), Bacillus subtilis
Format: cell-based
reported conditions: Bacillus subtilis, 48 h, Table VI, bacteriostase without serum; read-out: M.I.C.

Worked cases, answers included:
molecule: CCCCCCCCCCOCC(O)CN (stereo not drawn) [Compound 13, 3-decyloxy-2-hydroxy-1-aminopropane]
measurement name: MIC
meas value: 20 µg/mL
//
molecule: Br.CCCCCCCCCCOCC(O)CN (stereo not drawn)
measurement name: MIC
meas value: 25 µg/mL
//
molecule: CCCCCCCCCCCCCCCCCCOCC(O)CN.Cl (stereo not drawn)
measurement name: MIC
meas value: > 300 µg/mL
//
molecule: CCCCCCCCCCCCOCC(O)CN.Cl (stereo not drawn)
measurement name: MIC
meas value: 5 µg/mL
//
molecule: CCCCCCCCOCC(O)CN.Cl (stereo not drawn)
measurement name: MIC
meas value: 150 µg/mL

Enquiry: Notebook entry, Bacillus subtilis assay: MIC of CCCCCCCCC(O)CN (stereo not drawn) = ?
Return: 20 µg/mL

---

test details: in vivo
reported conditions: mouse, mice, intravenous, both after 3 minutes and after 14 days
measurement name: LD50 (mg/kg)
Numeric only. Scale: mg/kg

Enquiry: # input compound: CCCCCCCCCCOCC(O)CN.Cl (stereo not shown) ; wanted: its LD50
Return: 54.5

---

System: Bacillus subtilis
test details: bacteriostatic activity (MIC), Bacillus subtilis
Type: cell-based
reported conditions: Bacillus subtilis, 48 h, Table VI, bacteriostase without serum; read-out: M.I.C.
Structures can show the parent of a compound that is named as a salt.
Field 'label' (enum: t / f). Set to t when MIC is strictly under 7 µg/mL; else f.

Examples from the recorded data:
molecule: CCCCCCCCCCOCC(O)CN.Cl (centres unmarked)
category label: f
--
molecule: CCCCCCCCCCSCC(O)CN (centres unmarked) [Compound 14, hydrochloride]
category label: t
--
molecule: CCOCC(O)CN.Cl (centres unmarked)
category label: f
--
molecule: COCC(O)CN (centres unmarked)
category label: f
--
molecule: CCCCCCCCCCOCC(O)C[N+](C)(C)C (centres unmarked)
category label: f

Enquiry: Is MIC of CCCCCCCCCCCC(O)CN (centres unmarked) [Compound 8, 2-hydroxy-1-amino tridecane] strictly below 7 µg/mL?
Return: t

Enquiry: And the next one, CCCCCCCCCC(O)CN (centres unmarked) ?
Return: f

---

Tested on: Escherichia coli
test details: bacteriostatic activity (MIC), Escherichia coli
Assay type: cell-based
reported conditions: Escherichia coli, 48 h, Table VI, bacteriostase without serum; read-out: M.I.C.
Protocol: The medium containing the solution to be tested is inoculated in the form of three single striae with a 10^-5 times dilution of a bacterial culture aged 16 to 18 hours grown in salted peptone broth at a temperature of 37° C. After inoculation, the media are stored at 37° C. for 48 hours, after which the bacterial growth is inspected. […]
Where a name gives a salt, the structure may show the parent alone.
The entries below are paired with their reported log10 MIC.
Recall that a logarithmic scale is used here: each number is log10 of MIC in µg/mL.

Sample records with log10 MIC:
compound: CCCCCCCCCCSCC(O)CN (centres unmarked) [Compound 14, hydrochloride]
test target: Escherichia coli
meas value: 1.70
//
compound: Br.CCCCCCCCCCOCC(O)CN (centres unmarked) [Compound 3]
test target: Escherichia coli
meas value: 1.48
//
compound: CCCCCCCCCCOCC(O)CN.Cl (centres unmarked) [Compound 1]
test target: Escherichia coli
meas value: 1.30
//
compound: CCCCCCCCCC(O)CN (centres unmarked) [Compound 7]
test target: Escherichia coli
meas value: 1.88
//
compound: CCCCCCCCCCCCOCC(O)CN.Cl (centres unmarked) [Compound 2]
test target: Escherichia coli
meas value: 1.30

Enquiry: May I ask what log10 MIC has been recorded for CCCCCCCCCCCC(O)CN (centres unmarked) [Compound 8, 2-hydroxy-1-amino tridecane] ?
Return: 1.00

Enquiry: Please give the result for CCCCCCCCC(O)CN (centres unmarked) [Compound 4] too.
Return: 2.10

Enquiry: What do you have for CCCCCCCCCCOCC(O)C[N+](C)(C)C (centres unmarked) [Compound 5] ?
Return: 2.10

Enquiry: Also CCCCCCCCCCOCC(O)CN (centres unmarked) [Compound 13, 3-decyloxy-2-hydroxy-1-aminopropane] , if possible.
Return: 1.70

Enquiry: Also need CCCCCCCCOCC(O)CN.Cl (centres unmarked) [Compound 6] , thanks.
Return: 2.18
